Where do the numbers come from? From patent US9790220B2.

Assay System: human orexin receptor 1 (Homo sapiens (Human))
Sequence (O43613 whole entry): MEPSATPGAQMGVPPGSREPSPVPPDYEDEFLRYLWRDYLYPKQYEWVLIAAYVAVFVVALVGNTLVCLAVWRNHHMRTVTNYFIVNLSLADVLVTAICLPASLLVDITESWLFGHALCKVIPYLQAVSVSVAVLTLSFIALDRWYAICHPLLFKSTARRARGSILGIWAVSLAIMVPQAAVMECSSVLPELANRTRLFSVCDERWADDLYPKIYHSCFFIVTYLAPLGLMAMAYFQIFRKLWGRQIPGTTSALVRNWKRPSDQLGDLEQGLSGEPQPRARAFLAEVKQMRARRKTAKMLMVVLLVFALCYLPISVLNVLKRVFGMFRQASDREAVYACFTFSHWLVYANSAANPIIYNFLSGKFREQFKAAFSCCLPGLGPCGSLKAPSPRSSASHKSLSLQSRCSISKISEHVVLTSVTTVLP
Measurement Description: Orexin antagonist activity, intracellular calcium FLIPR assay (orexin receptor 1)
Condition Info: RBL-2H3 cells stably expressing human orexin receptor 1; orexin-A at approx. 80% maximal response; 15 min preincubation; read-out: Human Orexin1R IC50
Would you kindly list pIC50 for each of these molecules?
Note: pIC50 values are expressed as the negative base-10 logarithm of concentration in M.

Looking for the measured pIC50 of CCOc1ccc(C)nc1C(=O)NC1CCCC1Cc1ccc2ccccc2n1 (stereo not shown) [Example 26] , can you help? 6.04

Follow-up item: O=C(N[C@H]1CCC[C@@H]1Nc1nc2ccc(F)cc2s1)c1ncccc1N1CCCC1 [Example 14] 6.77

Can you handle COc1cccnc1C(=O)N[C@H]1CCC[C@@H]1Nc1nc2ccc(F)cc2o1 [Example 7] next? 6.27

# repeat for O=C(N[C@H]1CCC[C@@H]1Nc1nc2ccc(F)cc2s1)c1ncccc1OC(F)(F)F [Example 19] 7.48
